# systemUnderTest: Metabotropic glutamate receptor 1 (Homo sapiens)
# Sequence (Q13255 whole entry): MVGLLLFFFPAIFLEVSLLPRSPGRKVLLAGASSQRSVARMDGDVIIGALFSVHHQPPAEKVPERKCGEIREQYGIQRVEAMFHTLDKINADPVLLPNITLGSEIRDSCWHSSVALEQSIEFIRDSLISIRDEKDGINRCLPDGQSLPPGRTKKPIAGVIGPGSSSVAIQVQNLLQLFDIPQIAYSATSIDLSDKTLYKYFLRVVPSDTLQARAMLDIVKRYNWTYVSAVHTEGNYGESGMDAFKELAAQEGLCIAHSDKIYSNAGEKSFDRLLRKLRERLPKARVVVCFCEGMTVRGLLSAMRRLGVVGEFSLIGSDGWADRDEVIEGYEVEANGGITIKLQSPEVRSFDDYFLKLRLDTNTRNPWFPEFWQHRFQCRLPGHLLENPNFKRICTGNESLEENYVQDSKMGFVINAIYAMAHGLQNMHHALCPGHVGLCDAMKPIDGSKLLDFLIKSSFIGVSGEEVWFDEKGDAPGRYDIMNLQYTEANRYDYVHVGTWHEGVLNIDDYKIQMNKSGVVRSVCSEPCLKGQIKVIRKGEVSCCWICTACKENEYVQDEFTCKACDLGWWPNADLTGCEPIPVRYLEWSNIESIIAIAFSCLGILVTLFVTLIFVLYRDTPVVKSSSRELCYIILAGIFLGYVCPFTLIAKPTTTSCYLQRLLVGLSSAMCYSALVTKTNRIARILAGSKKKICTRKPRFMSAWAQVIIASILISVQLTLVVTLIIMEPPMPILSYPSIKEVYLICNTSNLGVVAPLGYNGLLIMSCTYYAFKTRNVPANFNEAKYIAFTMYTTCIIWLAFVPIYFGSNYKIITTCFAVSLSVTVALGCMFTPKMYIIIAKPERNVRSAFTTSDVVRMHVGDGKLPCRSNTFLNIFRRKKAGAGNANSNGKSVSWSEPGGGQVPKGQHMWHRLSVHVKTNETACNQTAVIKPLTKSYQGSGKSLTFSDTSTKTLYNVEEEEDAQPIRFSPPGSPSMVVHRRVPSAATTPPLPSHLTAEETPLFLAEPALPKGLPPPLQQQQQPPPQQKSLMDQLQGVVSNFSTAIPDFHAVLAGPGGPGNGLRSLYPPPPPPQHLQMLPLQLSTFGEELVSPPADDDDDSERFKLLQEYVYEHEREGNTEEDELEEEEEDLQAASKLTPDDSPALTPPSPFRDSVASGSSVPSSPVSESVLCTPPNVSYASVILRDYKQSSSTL
# method: Positive allosteric modulation of human mGlu1 receptor in HEK293 cells assessed as potentiation of glutamate-induced calcium mobiliztion by Fluo-4AM dye based fluorescence analysis
# Assay type: functional, cell-based
# testConditions: read-out: EC50

{"sampleSmiles": "Cc1ccc2c(c1)C(=O)N(c1ccc(NC(=O)c3occc3C)cc1Cl)C2=O", "EC50": "0.0544 µM"}
{"sampleSmiles": "O=C(Nc1ccc(N2C(=O)c3ccccc3C2=O)c(Cl)c1)c1occc1-c1ccccc1", "EC50": "> 10 µM"}
{"sampleSmiles": "O=C(Nc1ccc(N2C(=O)c3ccccc3C2=O)c(Cl)c1)c1cccs1", "EC50": "> 10 µM"}
{"sampleSmiles": "O=C(Nc1ccc(N2C(=O)c3ccccc3C2=O)c(Cl)c1)c1ccc(C(F)(F)F)o1", "EC50": "> 10 µM"}

###

Recorded pIC50, one value per entry.
# systemUnderTest: Cytochrome P450 1A2 (Homo sapiens)
# Sequence (P05177 whole entry): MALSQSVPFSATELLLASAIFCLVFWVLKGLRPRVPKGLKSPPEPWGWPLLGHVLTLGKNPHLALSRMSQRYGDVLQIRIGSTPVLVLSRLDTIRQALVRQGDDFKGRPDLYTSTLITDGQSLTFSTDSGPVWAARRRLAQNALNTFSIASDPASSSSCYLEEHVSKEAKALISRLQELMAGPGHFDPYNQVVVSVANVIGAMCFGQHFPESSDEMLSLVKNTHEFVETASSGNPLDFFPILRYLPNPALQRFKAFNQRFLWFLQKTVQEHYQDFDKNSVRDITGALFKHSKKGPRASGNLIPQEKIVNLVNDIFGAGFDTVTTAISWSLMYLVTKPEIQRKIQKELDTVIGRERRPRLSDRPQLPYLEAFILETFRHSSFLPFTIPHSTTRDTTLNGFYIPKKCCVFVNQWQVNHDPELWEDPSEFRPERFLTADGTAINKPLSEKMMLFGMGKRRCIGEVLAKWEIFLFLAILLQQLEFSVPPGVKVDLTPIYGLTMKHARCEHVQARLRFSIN
pIC50: −log10 of the molar value.
readout: pIC50

{"sampleSmiles": "O=C(Nc1ccc(N2C(=O)c3cccc(Cl)c3C2=O)c(Cl)c1)c1ncccc1Cl", "readout": "pIC50", "observedMeasurement": "< 4.52"}
{"sampleSmiles": "Cc1ccoc1C(=O)Nc1ccc(N2C(=O)c3ccncc3C2=O)c(Cl)c1", "readout": "pIC50", "observedMeasurement": "< 4.52"}
{"sampleSmiles": "Cc1ccoc1C(=O)Nc1ccc(N2C(=O)c3ccc(Cl)cc3C2=O)c(Cl)c1", "readout": "pIC50", "observedMeasurement": "< 4.52"}

###

# systemUnderTest: Metabotropic glutamate receptor 4 (Homo sapiens)
# Sequence (Q14833 whole entry): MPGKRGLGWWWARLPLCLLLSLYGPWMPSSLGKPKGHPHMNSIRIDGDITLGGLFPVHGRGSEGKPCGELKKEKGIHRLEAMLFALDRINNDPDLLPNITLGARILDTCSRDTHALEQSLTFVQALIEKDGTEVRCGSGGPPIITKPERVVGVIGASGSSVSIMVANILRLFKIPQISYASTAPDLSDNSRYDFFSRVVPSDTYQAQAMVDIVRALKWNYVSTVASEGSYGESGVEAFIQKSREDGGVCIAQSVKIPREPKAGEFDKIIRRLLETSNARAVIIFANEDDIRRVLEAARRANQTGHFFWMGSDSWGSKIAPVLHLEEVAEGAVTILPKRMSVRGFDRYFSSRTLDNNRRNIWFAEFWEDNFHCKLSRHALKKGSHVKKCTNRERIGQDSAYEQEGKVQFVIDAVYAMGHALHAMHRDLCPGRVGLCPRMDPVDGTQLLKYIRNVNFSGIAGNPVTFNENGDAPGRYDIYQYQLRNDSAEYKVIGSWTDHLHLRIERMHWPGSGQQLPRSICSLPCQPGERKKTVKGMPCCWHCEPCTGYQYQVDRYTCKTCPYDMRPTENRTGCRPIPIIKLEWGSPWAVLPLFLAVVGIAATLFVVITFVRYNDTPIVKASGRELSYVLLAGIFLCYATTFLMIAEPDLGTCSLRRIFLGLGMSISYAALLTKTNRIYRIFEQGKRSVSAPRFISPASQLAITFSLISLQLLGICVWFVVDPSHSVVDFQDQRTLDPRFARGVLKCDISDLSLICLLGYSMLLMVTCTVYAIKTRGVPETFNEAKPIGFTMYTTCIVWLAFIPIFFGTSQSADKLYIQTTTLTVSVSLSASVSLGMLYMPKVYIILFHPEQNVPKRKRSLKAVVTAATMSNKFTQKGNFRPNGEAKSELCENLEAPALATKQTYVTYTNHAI
# method: Positive allosteric modulation of human mGlu4 receptor assessed as potentiation of glutamate-induced calcium mobiliztion by cell based assay
# Assay type: functional
# testConditions: read-out: EC50
pEC50: −log10 of the molar value.
Cut-off 6 on pEC50, inclusive. At or above means criterion met; below means criterion not met.

{"sampleSmiles": "Cc1ccoc1C(=O)Nc1ccc(N2C(=O)c3cccc(C)c3C2=O)c(Cl)c1", "systemUnderTest": "Metabotropic glutamate receptor 4 (Homo sapiens)", "group": "criterion met"}
{"sampleSmiles": "Cc1ccc2c(c1)C(=O)N(c1ccc(NC(=O)c3occc3C)cc1Cl)C2=O", "systemUnderTest": "Metabotropic glutamate receptor 4 (Homo sapiens)", "group": "criterion met"}
{"sampleSmiles": "Cc1ccoc1C(=O)Nc1ccc(N2C(=O)c3ccncc3C2=O)c(Cl)c1", "systemUnderTest": "Metabotropic glutamate receptor 4 (Homo sapiens)", "group": "criterion not met"}
{"sampleSmiles": "Cc1ccoc1C(=O)Nc1ccc(N2C(=O)c3ccc(Cl)cc3C2=O)c(Cl)c1", "systemUnderTest": "Metabotropic glutamate receptor 4 (Homo sapiens)", "group": "criterion not met"}

###

# method: Half life in Sprague-Dawley rat at 0.2 mg/kg, iv by LC-MS/MS analysis
# testConditions: in vivo

{"sampleSmiles": "O=C(Nc1nc(C(F)(F)F)co1)C1c2ccccc2Oc2ccccc21", "half-life": "54 min"}
{"sampleSmiles": "Cc1ccoc1C(=O)Nc1ccc(N2C(=O)c3ccncc3C2=O)c(Cl)c1", "half-life": "5.38 min"}
{"sampleSmiles": "Cc1ccoc1C(=O)Nc1ccc(N2C(=O)c3cccc(F)c3C2=O)c(Cl)c1", "half-life": "53.6 min"}
{"sampleSmiles": "Cc1ccoc1C(=O)Nc1ccc(N2C(=O)c3ccc(Cl)cc3C2=O)c(Cl)c1", "half-life": "91.1 min"}

###

# method: Ratio of drug level in brain to plasma of Sprague-Dawley rat at 0.2 mg/kg, iv after 0.25 hrs by LC-MS/MS analysis
# testConditions: read-out: BPR

{"sampleSmiles": "Cc1ccoc1C(=O)Nc1ccc(N2C(=O)c3cccc(F)c3C2=O)c(Cl)c1", "Kp at 0.25 h": 1.02}
{"sampleSmiles": "Cc1ccoc1C(=O)Nc1ccc(N2C(=O)c3ccc(Cl)cc3C2=O)c(Cl)c1", "Kp at 0.25 h": 0.63}
{"sampleSmiles": "Cc1ccoc1C(=O)Nc1ccc(N2C(=O)c3ccncc3C2=O)c(Cl)c1", "Kp at 0.25 h": 2.81}
{"sampleSmiles": "O=C(Nc1nc(C(F)(F)F)co1)C1c2ccccc2Oc2ccccc21", "Kp at 0.25 h": 0.29}

###

# method: Plasma concentration in Sprague-Dawley rat at 0.2 mg/kg, iv after 0.25 hrs by LC-MS/MS analysis
readout: concentration at 0.25 h

{"sampleSmiles": "O=C(Nc1nc(C(F)(F)F)co1)C1c2ccccc2Oc2ccccc21", "observedMeasurement": "276 ng/mL"}
{"sampleSmiles": "Cc1ccoc1C(=O)Nc1ccc(N2C(=O)c3ccc(Cl)cc3C2=O)c(Cl)c1", "observedMeasurement": "173 ng/mL"}
{"sampleSmiles": "O=C(Nc1ccc(N2C(=O)c3cccc(Cl)c3C2=O)c(Cl)c1)c1ncccc1Cl", "observedMeasurement": "336 ng/mL"}
{"sampleSmiles": "Cc1ccoc1C(=O)Nc1ccc(N2C(=O)c3ccncc3C2=O)c(Cl)c1", "observedMeasurement": "12.5 ng/mL"}
{"sampleSmiles": "Cc1ccoc1C(=O)Nc1ccc(N2C(=O)c3cccc(F)c3C2=O)c(Cl)c1", "observedMeasurement": "200 ng/mL"}

###

# method: Mean residence time in Sprague-Dawley rat at 0.2 mg/kg, iv by LC-MS/MS analysis
# testConditions: in vivo
readout: MRT (min)

{"sampleSmiles": "Cc1ccoc1C(=O)Nc1ccc(N2C(=O)c3ccncc3C2=O)c(Cl)c1", "observedMeasurement": 7.85}
{"sampleSmiles": "Cc1ccoc1C(=O)Nc1ccc(N2C(=O)c3ccc(Cl)cc3C2=O)c(Cl)c1", "observedMeasurement": 53.5}
{"sampleSmiles": "Cc1ccoc1C(=O)Nc1ccc(N2C(=O)c3cccc(F)c3C2=O)c(Cl)c1", "observedMeasurement": 64.1}
{"sampleSmiles": "O=C(Nc1nc(C(F)(F)F)co1)C1c2ccccc2Oc2ccccc21", "observedMeasurement": 50}

###

# Species on record: Homo sapiens
# method: Selectivity index, ratio of EC50 for human mGlu4 receptor to EC50 for human mGlu1 receptor
Cut-off 30 on Ratio EC50, inclusive. At or above means met; below means not met.

{"sampleSmiles": "Cc1ccc2c(c1)C(=O)N(c1ccc(NC(=O)c3occc3C)cc1Cl)C2=O", "group": "not met"}
{"sampleSmiles": "Cc1ccoc1C(=O)Nc1ccc(N2C(=O)c3cccc(C)c3C2=O)c(Cl)c1", "group": "not met"}
{"sampleSmiles": "Cc1ccoc1C(=O)Nc1ccc(N2C(=O)c3cccc(Cl)c3C2=O)c(Cl)c1", "group": "met"}
{"sampleSmiles": "Cc1ccoc1C(=O)Nc1ccc(N2C(=O)c3cccc(F)c3C2=O)c(Cl)c1", "group": "met"}

###

Recorded %max, one value per entry.
# systemUnderTest: UniProtKB Q14833
# method: Positive allosteric modulation of human mGlu4 receptor assessed as potentiation of glutamate-induced calcium mobiliztion by cell based assay relative to PHCCC
readout: %max (%)

{"sampleSmiles": "Cc1ccoc1C(=O)Nc1ccc(N2C(=O)c3cccc(C)c3C2=O)c(Cl)c1", "systemUnderTest": "UniProtKB Q14833", "readout": "%max", "unitString": "%", "observedMeasurement": 153}
{"sampleSmiles": "Cc1ccoc1C(=O)Nc1ccc(N2C(=O)c3cccc(Cl)c3C2=O)c(Cl)c1", "systemUnderTest": "UniProtKB Q14833", "readout": "%max", "unitString": "%", "observedMeasurement": 163}
{"sampleSmiles": "Cc1ccoc1C(=O)Nc1ccc(N2C(=O)c3cccc(F)c3C2=O)c(Cl)c1", "systemUnderTest": "UniProtKB Q14833", "readout": "%max", "unitString": "%", "observedMeasurement": 122}
{"sampleSmiles": "Cc1ccc2c(c1)C(=O)N(c1ccc(NC(=O)c3occc3C)cc1Cl)C2=O", "systemUnderTest": "UniProtKB Q14833", "readout": "%max", "unitString": "%", "observedMeasurement": 69}
{"sampleSmiles": "Cc1ccoc1C(=O)Nc1ccc(N2C(=O)c3ccc(Cl)cc3C2=O)c(Cl)c1", "systemUnderTest": "UniProtKB Q14833", "readout": "%max", "unitString": "%", "observedMeasurement": 89}
{"sampleSmiles": "Cc1ccoc1C(=O)Nc1ccc(N2C(=O)c3ccncc3C2=O)c(Cl)c1", "systemUnderTest": "UniProtKB Q14833", "readout": "%max", "unitString": "%", "observedMeasurement": 18}
{"sampleSmiles": "Cc1ccoc1C(=O)Nc1ccc(N2C(=O)c3ccc(F)cc3C2=O)c(Cl)c1", "systemUnderTest": "UniProtKB Q14833", "readout": "%max", "unitString": "%", "observedMeasurement": 97}

###

# Tested on: Rattus norvegicus
# method: Volume of distribution at steady state in Sprague-Dawley rat at 0.2 mg/kg, iv by LC-MS/MS analysis
# testConditions: in vivo

{"sampleSmiles": "Cc1ccoc1C(=O)Nc1ccc(N2C(=O)c3cccc(F)c3C2=O)c(Cl)c1", "unitString": "L/kg", "Vdss": 0.85}
{"sampleSmiles": "Cc1ccoc1C(=O)Nc1ccc(N2C(=O)c3ccncc3C2=O)c(Cl)c1", "unitString": "L/kg", "Vdss": 3}
{"sampleSmiles": "O=C(Nc1nc(C(F)(F)F)co1)C1c2ccccc2Oc2ccccc21", "unitString": "L/kg", "Vdss": 1.34}
{"sampleSmiles": "Cc1ccoc1C(=O)Nc1ccc(N2C(=O)c3ccc(Cl)cc3C2=O)c(Cl)c1", "unitString": "L/kg", "Vdss": 1.76}
